system: CCRF-CEM-AraC-8C cells; assay: In vitro cytotoxicity assay (MTT), 72 h, hENT1 deficient cells; format: cell-based, human; conditions: Homo sapiens; MTT, 72 h incubation; hENT1 deficient
property name: pIC50
Answers are plain numbers, as −log10 of the molar value.

Which pIC50 reading was recorded for the molecule Cl.Nc1ccn([C@@H]2O[C@H](CO)[C@@H](O)C2(F)F)c(=O)n1 [Gemcitabine HCl, 2′,2′-difluorodeoxycytidine HCl, reference compound] ?
6.00

* * *

system: PANC-1 cells; experiment: In vitro cytotoxicity assay (MTT), 96 h, RRM2 over-expressing cells; format: cell-based, human; settings: Homo sapiens, PANC-1; MTT, 96 h incubation; RRM2 over-expressing
property name: IC50

Requested read-out: IC50. Entry: Cl.Nc1ccn([C@@H]2O[C@H](CO)[C@@H](O)C2(F)F)c(=O)n1 [Gemcitabine HCl, 2′,2′-difluorodeoxycytidine HCl, reference compound]
> 400 µM
